The values you see were collected from PubChem BioAssay (Tox21).

# max response annotations
# Experimental details: qHTS RealTime-Glo MT Cell Viability Assay in HEK293 cells - 40 hour (AID 1224874); further: on the % scale 0 is the no-effect control and ±100 the full control effect; nearly all actives have a fitted effect of over 50% in size
# Test context: RealTime-Glo luminescence; stronger effect = lower value
Inconclusive results are not listed.
Field format: number, assumed %, no unit text.

- Compound: "COC1CCC=CO1 (centres undefined)"
  Property: "max response"
  Quantitative readout: 9.69
- Compound: "C=CC(=O)NC(C)C"
  Property: "max response"
  Quantitative readout: 9.7

(Q) Which max response value is on record for CCOC(=O)Oc1ccc(CCNC(=O)[C@H](CCSC)NC(C)=O)cc1OC(=O)OCC ?
(A) 14.4

(Q) Please report the recorded max response for O=C(c1ccccc1)C1CCC1 .
(A) 13.2

(Q) Recorded max response of O=P(O)(O)Oc1ccccc1 , please.
(A) 12.9

(Q) Report max response for O=[N+]([O-])c1ccc2ncccc2c1 please.
(A) 2.13

(Q) Please report the recorded max response for CCCCCc1ccco1 .
(A) 4.73

(Q) Reported max response, compound CCOCCC(=O)OCC : ____
(A) 4.01

(Q) Can you share its max response? I mean this compound: COc1ccc(-n2nc(C(F)F)cc2-c2ccc(S(C)=O)cc2)cc1 (centres undefined)
(A) -24.7

----------
# Experimental details: qHTS assay to identify small molecule antagonists of the sonic hedgehog signaling (Shh) pathway (AID 1259369); further: nearly all actives have a fitted effect of over 45% in size
# Test context: NIH/3T3 Gli1-Luc reporter, Shh antagonist, luminescence 24 h; series mostly up to 92.4 µM
# Excerpt: U.S. Tox21 Program National Center for Advancing Translational Sciences [NCATS] NIH Chemical Genomics Center [NCGC] U.S. Environmental Protection Agency [EPA] National Institutes of Environmental Health Sciences [NIEHS] National Toxicology Program [NTP] U.S. Food and Drug Administration [FDA] Tox21 Assay Overview: The sonic hedgehog (Shh) pathway is essential for normal embryonic development. Dysregulation of the Shh pathway can cause severe developmental defects in organs. […]
Inconclusive results are not listed. Active and inactive are the calls of the source. The call rests on the fitted dose curve.
Classes to choose from: y = active, n = inactive

Previously resolved entries follow.
- Molecule: "CCCCC(CC)COS(=O)(=O)O (stereo not drawn)"
  Answer label: "n"
- Molecule: "C1CCCCC1"
  Answer label: "n"
- Molecule: "CCN(CC)CC(=O)Nc1c(C)cccc1C(=O)OC"
  Answer label: "n"
- Molecule: "C[C@H](CS)C(=O)N1CCC[C@H]1C(=O)O"
  Answer label: "n"

(Q) Recorded test call requested for CNC1CCCN(c2c(F)cc3c(=O)c(C(=O)O)cn(C4CC4)c3c2OC)C1 (stereo not drawn)
(A) n

(Q) What outcome does the record of this test show for CCCCC[C@H](O)/C=C/[C@H]1[C@H](O)CC(=O)[C@@H]1C/C=C\CCCC(=O)O ?
(A) y

(Q) // outcome(item) with item = CCCCCCC(O)CCOC(C)=O (stereo not drawn)
(A) n

(Q) Record lookup: outcome of this test for Cc1ccc(N(CCO)CCO)cc1 ?
(A) n

----------
# Experimental details: qHTS RealTime-Glo MT Cell Viability Assay in HEK293 cells - 32 hour (AID 1224868); further: nearly all actives have a fitted effect of over 50% in size
# Test context: RealTime-Glo luminescence; series mostly up to 76.8 µM
Records with an inconclusive call do not appear. Activity calls are given as the source filed them. Calls come from the whole dose curve; as a rule, active = well fitted cell-killing curve with a large enough effect in the repeat runs; inconclusive = weak or mixed curves, or effect the other way; inactive = flat fitted curve, though single readings scatter.
Use one of these outcomes when replying: class 1 = active, class 0 = inactive

// below: answered compounds
- Compound: "O=[N+]([O-])C1(Br)COCOC1"
  Answer label: "class 1"
- Compound: "C=Cc1ccc(OC(C)=O)cc1"
  Answer label: "class 0"
- Compound: "O=P(O)(O)Oc1ccccc1"
  Answer label: "class 0"
- Compound: "CC(C)(C)C1(CCc2ccc(Cl)cc2)CO1 (stereo not drawn)"
  Answer label: "class 0"

(Q) Recorded call for ClC1=C(Cl)C1(Cl)Cl ?
(A) class 0

(Q) Please share the test call associated with Nc1nc(-c2ccc([N+](=O)[O-])cc2)cs1 .
(A) class 0

(Q) Recorded test call requested for CC[C@@H](CO)NCCN[C@@H](CC)CO
(A) class 0

----------
# Assay system: Cytochrome P450 3A4 (Homo sapiens) (UniProt P08684)
# Sequence (P08684 whole entry, looked up): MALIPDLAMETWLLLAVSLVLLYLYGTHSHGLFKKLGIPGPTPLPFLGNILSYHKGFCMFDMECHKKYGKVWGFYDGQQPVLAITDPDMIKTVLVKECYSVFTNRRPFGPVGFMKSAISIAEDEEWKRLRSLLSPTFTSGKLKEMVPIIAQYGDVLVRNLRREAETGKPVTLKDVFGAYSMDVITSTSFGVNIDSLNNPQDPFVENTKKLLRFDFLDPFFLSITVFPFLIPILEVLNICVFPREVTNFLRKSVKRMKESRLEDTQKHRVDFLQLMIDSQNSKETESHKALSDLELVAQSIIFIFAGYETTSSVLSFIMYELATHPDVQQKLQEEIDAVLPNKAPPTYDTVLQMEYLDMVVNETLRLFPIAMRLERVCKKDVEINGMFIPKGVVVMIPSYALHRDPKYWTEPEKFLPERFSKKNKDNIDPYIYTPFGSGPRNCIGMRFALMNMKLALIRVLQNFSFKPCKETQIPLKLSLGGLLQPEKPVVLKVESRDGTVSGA
# Experimental details: Cytochrome P450 Family 3 Subfamily A Member 4 (CYP3A4) small molecule antagonists: luciferase reporter qHTS assay (AID 1671201); further: nearly all actives have a fitted effect of over 50% in size
# Test context: P450-Glo CYP3A4 enzyme, luciferin luminescence, 1 h; series mostly up to 115 µM
# Excerpt: National Center for Advancing Translational Sciences [NCATS] U.S. Environmental Protection Agency [EPA] National Institutes of Environmental Health Sciences [NIEHS] National Toxicology Program [NTP] U.S. Food and Drug Administration [FDA] Cytochrome P450 (CYP) enzymes are membrane-bound hemeproteins that play a key role in metabolism of drugs and xenobiotics. […] The luciferin products formed are detected with a luciferin detection reagent, and the amount of light produced is proportional to CYP activity. […]
Results filed as inconclusive are left out. Activity calls are given as the source filed them. The call rests on the fitted dose curve; in most records, active means well fitted inhibition curve with a large enough effect in the repeat runs; inconclusive means weak or mixed curves; inactive means no such curve, though single readings can be large or run the other way.
API: response.call in active, inactive

Worked cases, answers included:
- Compound: "CCO[Si](C)(CCCOCC1CO1)OCC (stereo unspecified)"
  Answer label: "active"
- Compound: "Cc1ccc(S(=O)(=O)NC(=O)NC2CCCCC2)cc1"
  Answer label: "inactive"
- Compound: "N[C@@H](Cc1cc(I)c(O)c(I)c1)C(=O)O"
  Answer label: "inactive"
- Compound: "COC(=O)CC(C(C)=O)C(=O)OC (stereo unspecified)"
  Answer label: "inactive"
- Compound: "Cc1cn([C@H]2C[C@H](F)[C@@H](CO)O2)c(=O)[nH]c1=O"
  Answer label: "inactive"
- Compound: "CC(=O)OCCC(C)CC(C)(C)C (stereo unspecified)"
  Answer label: "inactive"
- Compound: "Cc1c(C2(c3cc(Br)c(O)c(Br)c3C)OS(=O)(=O)c3ccccc32)cc(Br)c(O)c1Br"
  Answer label: "active"
- Compound: "CNS(=O)(=O)c1cc(C(=O)N2CCC(CCN3C4CCC3CC(n3c(C)nc5ccccc53)C4)(c3cccc(F)c3)CC2)c(Cl)cc1F (stereo unspecified)"
  Answer label: "inactive"
- Compound: "CC(=O)N[C@@H](Cc1ccc(O)cc1)C(=O)O"
  Answer label: "inactive"
- Compound: "CC(C)C1CCC(C(=O)N[C@H](Cc2ccccc2)C(=O)O)CC1 (stereo partly specified)"
  Answer label: "inactive"

(Q) Hi team, can someone confirm the assay call for C[C@H](CS)C(=O)N1CCC[C@H]1C(=O)O ?
(A) inactive

(Q) Hi, do you know how C[C@@H]1C[C@H]2[C@@H]3CCC4=CC(=O)C=C[C@]4(C)[C@@]3(F)[C@@H](O)C[C@]2(C)[C@@]1(O)C(=O)COP(=O)(O)O came out in this test?
(A) inactive

(Q) Query: recorded result category for CC(CCc1ccc(O)cc1)NCCc1ccc(O)c(O)c1 (stereo unspecified) in this test
(A) inactive

(Q) # fetch the recorded call for O=C(O)CNC(=O)c1ccccc1I here
(A) inactive

(Q) Recorded test outcome, item CCCCCCOC(=O)CCCCC
(A) inactive

(Q) Record request — test call for CC(CO)(CO)C(=O)O
(A) inactive

(Q) Query: recorded result category for c1ccc(CNc2ncnc3c2ncn3C2CCCCO2)cc1 (stereo unspecified) in this test
(A) inactive

(Q) Record request — test call for O[C@@H](CNC[C@H](O)[C@H]1CCc2cc(F)ccc2O1)[C@@H]1CCc2cc(F)ccc2O1
(A) inactive

(Q) How did this test come out for CCCCCCCC/C=C/C(=O)O ?
(A) inactive

----------
# Experimental details: qHTS RealTime-Glo MT Cell Viability Assay in HEK293 cells - 8 hour (AID 1224887); further: top concentration of the series differs between compounds; on the % scale 0 is the no-effect control and ±100 the full control effect; nearly all actives have a fitted effect of over 50% in size
# Test context: RealTime-Glo luminescence; series mostly up to 76.8 µM
Results filed as inconclusive are left out. Activity calls are given as the source filed them. Calls follow the shape of the dose curve; as a rule, active = well fitted cell-killing curve with a large enough effect in the repeat runs; inconclusive = weak or mixed curves, or effect the other way; inactive = flat fitted curve, though single readings scatter.
Would you mind answering with one of these outcomes? TRUE (active), FALSE (inactive)

- Compound: "COC(OC)OC"
  Answer label: "FALSE"
- Compound: "CCCCC[C@H](O)/C=C/[C@H]1[C@H](O)CC(=O)[C@@H]1C/C=C\\CCCC(=O)O"
  Answer label: "FALSE"
- Compound: "CC1C(C)(C)C2=C(C(=O)CCC2)C1(C)C (stereo not given)"
  Answer label: "FALSE"
- Compound: "CCCCOC(=O)CCCCC(=O)OCCCC"
  Answer label: "FALSE"
- Compound: "Nc1ccc(F)cc1"
  Answer label: "FALSE"
- Compound: "NC(=O)CCCCC(N)=O"
  Answer label: "FALSE"

(Q) Any idea what this test logged for CCC(=O)OCc1ccc(OC)cc1 ?
(A) FALSE

(Q) Kindly provide the recorded test outcome for the following compound: Cc1ccc(N(CCO)CCO)cc1
(A) FALSE

(Q) Outcome logged for CC1=C2[C@@H]([C@H](C)CC[C@H]2/C=C(\C)C(=O)O)[C@H](O)C1 in this assay:
(A) FALSE
